Values from patent US20030186947A1

Target: RARβ (Homo sapiens, UniProt P10826)
Sequence (P10826 183-417 limits assumed): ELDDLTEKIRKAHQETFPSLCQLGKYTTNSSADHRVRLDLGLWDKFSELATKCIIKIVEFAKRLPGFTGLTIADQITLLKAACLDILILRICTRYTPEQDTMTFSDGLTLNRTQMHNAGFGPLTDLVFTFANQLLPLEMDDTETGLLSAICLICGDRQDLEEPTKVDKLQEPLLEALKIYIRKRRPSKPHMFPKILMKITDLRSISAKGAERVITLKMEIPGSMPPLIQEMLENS
Assay: chimeric receptor transactivation assay
Assay type: cell-based
Settings: value in parentheses

{"columns": ["MOLECULE", "RAR (EFFICACY) β"],
 "data": [
  ["O=C(O)c1ccc(C#Cc2ccc(C3(NCc4ccccc4)CC3)cc2)cc1", "(37)"],
  ["Cc1cc(C#Cc2ccc(C(=O)O)cc2)ccc1C1(OC(C)C)CC1", "(77)"],
  ["CC1(C)CCC(=O)c2ccc(C#Cc3ccc(C(=O)O)c(F)c3)cc21", "(86)"],
  ["CC1(C)CC2(CC2)Oc2ccc(C#Cc3ccc(C(=O)O)c(F)c3)cc21", "(100)"],
  ["CN(C1CC1)C1CCC(C)(C)c2cc(C#Cc3ccc(C(=O)O)c(F)c3)ccc21 (stereo not shown)", "(6.6)"],
  ["CN(C1CC1)C1CCC(C)(C)c2cc(C#Cc3ccc(C(=O)O)cc3)ccc21 (stereo not shown)", "(54)"],
  ["CN(C1CC1)C1CCC(C)(C)c2cc(C#Cc3ccc(CC(=O)O)cc3)ccc21 (stereo not shown)", "(96)"]
]}
